System: NCI-H226 lung
Test: NCI-60 one-dose screen, 48 h (100 = growth as untreated, 0 = no growth, -100 = all killed)
Settings: 10 µM unless noted
About 83,000 compounds went through this panel and 20% of them were active in at least one assay; those are over-represented in the sample as a whole.
Decision: growth beneath 70% gives satisfied; growth meeting or exceeding 70% gives not satisfied.

In plain terms, does CC(=O)N1CCN(c2ccc(OCC3CO[C@](Cn4ccnc4)(c4ccc(Cl)cc4Cl)O3)cc2)CC1 (some centres undefined) come in under 70% for growth?
satisfied

In plain terms, does CCN(CC)CCNc1nc2ccccc2c2c(=O)c3cc(Cl)ccc3sc12 come in under 70% for growth?
not satisfied

In plain terms, does BrCCCc1n(Cc2ccc3ccccc3c2)c2ccccc2[n+]1Cc1ccc2ccccc2c1 come in under 70% for growth?
satisfied

In plain terms, does Cc1ccc2c(n1)C(=O)C(Cl)=C(Nc1ccccc1C(C)C)C2=O come in under 70% for growth?
satisfied

In plain terms, does NC1=NC(c2cccc(Br)c2)c2sc3ccc(Cl)cc3c2N1 (centres undefined) come in under 70% for growth?
not satisfied

In plain terms, does COc1cccc(OC)c1C(=O)N[C@@H]1C(=O)N2[C@@H]1SC(C)(C)[C@@H]2C(=O)O come in under 70% for growth?
not satisfied

In plain terms, does O=C(Nc1ccc(OS(=O)(=O)c2ccc(F)cc2)cc1)c1ccc(Cl)cc1 come in under 70% for growth?
not satisfied

In plain terms, does NC1CCN(c2nc(Nc3cccc(C(F)(F)F)c3)c3c(=O)[nH]ccc3n2)CC1 come in under 70% for growth?
satisfied

In plain terms, does Cc1cc(=O)[nH]c(=O)n1Cc1cn(-c2c3ccccc3nc3ccccc23)nn1 come in under 70% for growth?
not satisfied
